observationType: melting point

[[record]]
compound = "CCN1C(=O)C(F)(F)c2cc(N3C[C@H](C(=O)NC)OC3=O)ccc21 [Example 4]"
experimentalresult = "211 to 213 °C"

[[record]]
compound = "CN1C(=O)C(F)(F)c2cc(N3C[C@H](C(N)=O)OC3=O)ccc21 [Example 2]"
experimentalresult = "274 to 277 °C (dec.)"

[[record]]
compound = "CCN1C(=O)C(F)(F)c2cc(N3C[C@H](CNC(C)=O)OC3=O)ccc21 [Example 6]"
experimentalresult = "139 to 141 °C"

[[record]]
compound = "CCN1C(=O)C(F)(F)c2cc(N3C[C@H](C(N)=O)OC3=O)ccc21 [Example 3]"
experimentalresult = "201 to 203 °C"

[[record]]
compound = "CC(=O)NC[C@H]1CN(c2ccc3c(c2)C(F)(F)C(=O)N3C)C(=O)O1 [Example 5]"
experimentalresult = "125 to 127 °C"

[[record]]
compound = "CNC(=O)[C@H]1CN(c2ccc3c(c2)C(F)(F)C(=O)N3C)C(=O)O1 [Example 1]"
experimentalresult = "242.5 to 245 °C"

